Tested on: CAKI-1 renal
Assay: NCI tumour cell line growth inhibition, 48 h
test.readout: TGI

• O=C1NCN(c2ccccc2)C12CCN(CC1COc3ccccc3O1)CC2 (stereo unspecified) = > 100 µM
• Cc1[nH]c(-c2ccccc2)c2nc(N(C)C)oc(=O)c12 = > 100 µM
• Oc1ccccc1C=Nc1ccc(-c2nc3ccccc3s2)cc1 = > 100 µM
• O=P(NCCCO)(OCc1ccccc1)N(CCCl)CCCl (stereo unspecified) = > 100 µM
• CC1(C)N=C(N)N=C(N)N1c1cccc(CCc2ccccc2)c1 = > 100 µM
• Cc1c(/C=N/NC(=S)N2CCCCC2)c(=O)n(-c2ccccc2)n1C = > 100 µM
• O=C(O)CCCCC1CCSS1 (stereo unspecified) = > 100 µM
• O=C(NCCN1CCCCC1)c1cccc(I)c1 = > 100 µM
• C=CC(=O)Nc1cc2c(Nc3ccc(F)c(Cl)c3)ncnc2cc1C#CC(C)(C)N1CCN(C)CC1 = 4.05 µM
• COc1cc(NC2CCCCC2O)c2nc(-c3ccc(Cl)cc3)ccc2c1 (stereo unspecified) = 63.2 µM
• C/C(C=O)=C/[C@@]1(C)O[C@@H](C)[C@@](C)(O)[C@@H]1O = 37.1 µM
• Cc1ccc(-c2cc(-c3ccc(Cl)cc3)nc(/N=C3\C(=O)N(CN(C)C)c4ccccc43)n2)cc1 = > 100 µM
• COc1ccc(COCC[C@H](C)OC2OC(CO)C(O)C(O)C2O)cc1 (stereo partly specified) = > 100 µM
• CCOc1ccc(NC(=O)C(=O)Nn2c(N)nnc2N)cc1 = > 100 µM
• CS(=O)(=O)Nc1cc(-c2ccc3ncnc(Nc4cccc(Cl)c4)c3c2)cnc1Cl = 7.71 µM
• COc1ccc(-c2csc(Nc3cccc(-c4csc(C)n4)c3)n2)cc1 = > 14 µM
• COCC(C(=O)OC1C/C=C/C=C/C(=O)OC(C(C)C(O)C(C)CCC(OC(=O)C(C)N(C)C)C(C)C(OC(C)=O)C(C)/C=C/N(C)C=O)C/C=C/C(OC)CC(C)C/C=C(\C)C(OC)CCC(C)C(O)C1C)N(C)C (stereo unspecified) = 0.007 µM
• CC(=O)Nc1cccc(N2C(=O)/C(=C\c3cccc(Oc4ccccc4)c3)SC2c2ccccc2)c1 (stereo unspecified) = > 100 µM
• COc1ccc(C2C3CCc4ccccc4C3=NN2S(=O)(=O)c2cccc(C(=O)O)c2OC)cc1 (stereo unspecified) = > 100 µM
• CN1CCC(C(O)(c2ccccc2)c2ccc(Br)cc2)CC1 (stereo unspecified) = > 100 µM
• O=C1NC2(CCNCC2)Oc2ccccc21 = > 100 µM
• O=C1C(=O)C2(CC1S(=O)(=O)c1ccccc1)c1ccccc1-c1ccccc12 (stereo unspecified) = 61.6 µM
• Cc1c(-c2ccccc2)[nH]c2cn[nH]c(=O)c12 = > 100 µM
• COc1cccc(-c2nc3sccn3c2-c2ccnc(NCCCNS(=O)(=O)c3ccccc3)c2)c1 = > 100 µM
• COC(=O)/C=C/[C@@H]1[C@H](C)N1S(=O)(=O)c1ccc(C)cc1 (stereo partly specified) = > 100 µM
• CCOC(=O)C(=CNc1ccc(F)c(F)c1)C(=O)OCC = > 100 µM
• COc1ccc(C2=Nn3c(nnc3-n3nc(C)cc3C)SC2)cc1 = > 43.4 µM
• CCc1n[nH]c(=O)n1/N=C(\C)c1ccccc1 = > 100 µM
• CC(O)[C@H](NC(=O)N[C@@H](CC(N)=O)c1nc(N2CCNCC2)no1)C(=O)O (stereo partly specified) = > 100 µM
• CC1(C)C2CCC13C(=O)C1OC3(C2)C2C(=O)c3c(ccc4c3ccc3ccccc34)C(=O)C12 (stereo unspecified) = 80.1 µM
• Cn1cnnc1[S-].[Au+].c1ccc([PH+](c2ccccc2)c2ccccc2)cc1 = 2.82 µM
• CCOC(=O)/C(=C\c1ccc2ccccc2c1)P(=O)(OCC)OCC = 12 µM
• N#C/C(=C(/O)CCl)c1nc2ccccc2o1 = 22.6 µM
• CCN(c1ccccc1)[C@H]1C(=O)N(c2ccc([N+](=O)[O-])cc2)[C@H]1c1ccc(OC)cc1 = > 100 µM
• O=c1c(Sc2c(SCSc3cnc4ccccc4c3Sc3c[nH]c4ccccc4c3=O)cnc3ccccc23)c[nH]c2ccccc12 = > 100 µM
• O=C(O)CSc1n[nH]c(-c2ccco2)n1 = > 100 µM
• C=C1C(O)C2(O)OCC34C(CC5C(C)=CC(=O)C(O)C5(C)C23)OC(=O)C(OC(=O)C/C=C/CCCCCCCC)C14 (stereo unspecified) = 0.232 µM
• COc1cc2ncnc(Oc3cccc(NC(=O)Nc4cc(C(C)(C)C(F)(F)F)on4)c3)c2cc1OC = > 43 µM
• COc1cccc(C23CCN(C)C(CC(O)C2)C3)c1OC (stereo unspecified) = > 100 µM
• CCOc1nc2c(N3CCCC3)nc(N3CCNCC3)nc2nc1NCc1ccccc1 = 6.71 µM
• C#C[C@]1(O)CC[C@H]2[C@@H]3CC=C4c5nc(N)sc5CC[C@]4(C)[C@H]3CC[C@@]21C = 14.8 µM
